So I've got a bunch of compounds here, and I need their IC50 values.
- Test system: HCT116 MTAP null cells
- TEST_NAME: HCT116 MTAP null cell line proliferation (CellTiter-Glo cell viability, 6 days)
- Format: cell-based
- CONDITION_SET: HCT116-MTAP null, 144 h, HCT116 MTAP null cells, 6 days of treatment, CellTiter-Glo cell viability; read-out: HCT-116 MTAP null IC50
Provide only the numeric value, understood in nM.

Given item Cn1ncc2c(N)nc3cnc(C(=O)N4CCOC[C@@H]4c4ccc(C(F)(F)F)cc4)cc3c21 [Example 371] , the value recorded as its IC50 is 22

Given item Cn1ncc2c(N)nc3cc(Cl)c(C(=O)N4CCOC[C@@H]4c4ccc(C(F)(F)F)cc4)cc3c21 [Example 546] , the value recorded as its IC50 is 13

Given item C[C@@H]1COC[C@H](c2ccc(OC(F)F)nn2)N1C(=O)c1cc2c3c(c(N)nc2cc1F)[C@@H](C)OC3 [Example 562] , the value recorded as its IC50 is 6

Given item CC(C)Oc1ccc([C@@H]2COC[C@H](C)N2C(=O)c2cc3c4c(c(N)nc3cn2)COC4)cn1 (racemic) [Example 306] , the value recorded as its IC50 is 96

----------
- Test system: HCT116 MTAP null cells
- TEST_NAME: HCT116 MTAP null cell line proliferation (CellTiter-Glo cell viability, 6 days)
- Format: cell-based
- CONDITION_SET: HCT116-MTAP null, 144 h, HCT116 MTAP null cells, 6 days of treatment, CellTiter-Glo cell viability; read-out: HCT-116 MTAP null IC50
So I've got a bunch of molecules here, and I need their pIC50 values.
Scale explanation: pIC50 corresponds to minus log10 of a concentration expressed in moles per litre.

Given item C[C@H]1OCc2c1c(N)nc1cnc(C(=O)N3[C@@H](C)COC[C@H]3c3ccc(Cl)nc3)cc21 (racemic) [Example 310] , the value recorded as its pIC50 is 7.18

Given item Cn1ncc2c(N)nc3cnc(C(=O)N4CC[C@H](c5ccc(C(F)(F)F)cc5)C4)cc3c21 [Example 426] , the value recorded as its pIC50 is 7.01

Given item Nc1nc2cnc(C(=O)N3CCCC[C@@H]3c3ccc(C(F)(F)F)cc3)cc2c2c1COC2 (single isomer, unassigned) [Example 485] , the value recorded as its pIC50 is 7.40

Given item CCOc1ccc([C@H]2COC[C@@H](C)N2C(=O)c2ccc3nc(N)c4c(c3c2)CO[C@@H]4C)nn1 [Example 537] , the value recorded as its pIC50 is 7.26

----------
- Test system: HCT116 MTAP null cells
- TEST_NAME: HCT116 MTAP null cell line proliferation (CellTiter-Glo cell viability, 6 days)
- Assay type: cell-based
- CONDITION_SET: HCT116-MTAP null, 144 h, HCT116 MTAP null cells, 6 days of treatment, CellTiter-Glo cell viability; read-out: HCT-116 MTAP null IC50
MEASURE: pIC50
Scale explanation: pIC50 corresponds to minus log10 of a concentration expressed in moles per litre.

Given item Cn1ncc2c(N)nc3cc(C(F)(F)F)c(C(=O)N4CCOC[C@@H]4c4ccc(C(F)(F)F)cc4)cc3c21 [Example 548] , the value recorded as its pIC50 is 6.57

Given item Nc1nc2ccc(C(=O)N3CCOCC3c3ccc(F)c(C(F)(F)F)c3)cc2c2c1COC2 (racemic) [Example 348] , the value recorded as its pIC50 is 6.11

Given item C[C@H]1OCc2c1c(N)nc1ccc(C(=O)N3C[C@H](c4ccccc4)[C@H]4CCC[C@@H]43)cc21 [Example 401] , the value recorded as its pIC50 is 6.17

Given item Nc1nc2cc(Cl)c(C(=O)N3CCOCC3c3ccc(C(F)(F)F)cn3)cc2c2c1COC2 (racemic) [Example 344] , the value recorded as its pIC50 is 7.24

Given item Nc1nc2cc(Cl)c(C(=O)N3CCOC[C@@H]3c3ccc(C(F)(F)F)cc3)cc2c2c1COC2 [Example 529] , the value recorded as its pIC50 is 7.74

Given item Nc1nc2cnc(C(=O)N3CCOC[C@@H]3c3ccc(S(F)(F)(F)(F)F)cc3)cc2c2c1COC2 (single isomer, unassigned) [Example 458] , the value recorded as its pIC50 is 7.74

Given item Cn1ncc2c(N)nc3ccc(C(=O)N4CC[C@H](c5ccc(C(F)(F)F)cc5)C4)cc3c21 [Example 425] , the value recorded as its pIC50 is 6.83

Given item Cc1cc2nc(N)c3c(cnn3C)c2cc1C(=O)N1CCOC[C@@H]1c1ccc(C(F)(F)F)cc1 [Example 414] , the value recorded as its pIC50 is 7.25

Given item Cn1ncc2c(N)nc3cc(F)c(C(=O)N4C[C@H]5C[C@@]5(c5ccc(C(F)(F)F)cc5)C4)cc3c21 (single isomer, unassigned) [Example 621] , the value recorded as its pIC50 is 6.76

Given item Nc1nc2cnc(C(=O)N3CCOC[C@H]3c3ccc(C(F)(F)F)s3)cc2c2c1COC2 (single isomer, unassigned) [Example 616] , the value recorded as its pIC50 is 5.49

Given item Cn1ncc2c(N)nc3cc(F)c(C(=O)N4CC(O)(c5ccc(C(F)(F)F)cc5)C4)cc3c21 [Example 439] , the value recorded as its pIC50 is 7.68
